Numbers sourced from PubChem BioAssay (NCI).

Recorded growth by entry
test system: NCI-H322M lung; test: NCI-60 one-dose screen, 48 h (100 = growth as untreated, 0 = no growth, -100 = all killed); settings: 10 µM unless noted
About 83,000 compounds went through this panel and 20% of them were active in at least one assay; those are over-represented in the sample as a whole. The source made the active and inactive calls. Rule for the calls: active = growth percent below 10; inactive = the rest.

| COMPOUND | growth |
| --- | --- |
| O=C(N/N=C/C[C@@H]1[C@@H](/C=C/[C@@H](O)COc2cccc(Cl)c2)[C@H](O)C[C@@H]1O)c1ccncc1 | 101% (inactive) |
| COc1ccc2oc(=O)cc(-c3nc4ccc(N)cc4[nH]3)c2c1 | 86.2% (inactive) |
| C=C(C)[C@@H]1CC[C@]2(C(=O)O)CC[C@]3(C)[C@H](CC[C@@H]4[C@@]5(C)C[C@@H](CC#Cc6ccccc6C)C(=O)C(C)(C)[C@@H]5CC[C@]43C)[C@@H]12 | 36.4% (inactive) |
| Cc1nnc(/N=C2\NC(=O)/C(=C/c3ccc(N(C)C)cc3)S2)s1 | 85.5% (inactive) |
| C=C1C(=O)O[C@H]2[C@H]1CC/C(COC(=O)c1c[nH]c3ccccc13)=C\CC[C@@]1(C)O[C@@H]21 | 16% (inactive) |
| COc1cccc(NC(=O)Nc2ccc(Nc3ncnc4[nH]c(C)c(C)c34)cc2)c1 | 114% (inactive) |
| Fc1ccc(N/N=C/c2ccc(-n3cccn3)cc2)cc1 | 99.9% (inactive) |
| O=[N+]([O-])c1cccc(CN(Cc2cccc([N+](=O)[O-])c2O)c2ccccc2)c1O | 60.1% (inactive) |
| CCOC(=O)C1=C(C)n2nc(CC#N)c(C#N)c2NC1c1ccc(Cl)cc1 (centres undefined) | 91.7% (inactive) |

---

Tested on: SF-268 CNS
Test: NCI-60 one-dose screen, 48 h
Conditions: 10 µM unless noted
Procedure: Cells are grown in 96 well plates and exposed to the test compound for 48 hours. Compounds are tested at a single concentration, which is 10^-5 M for most compounds. The reported endpoint is percent growth (GI% or GIPRCNT), where numbers from 0 - 100% represent growth inhibition, and numbers from -100% - 0 represent cell death. For example, a value of 40 represents 60% growth inhibition. A value of 0 means no net growth occurred over the course of the experiment. […]
The panel holds about 83,000 compounds, 20% with a hit somewhere; the sample as a whole holds those more often. Calls of active or inactive are those of the source. Rule for the calls: active = growth percent below 10; inactive = the rest.
Outcomes: active, inactive

| MOLECULE | CLASS |
| --- | --- |
| Cc1cccc(C)c1NCc1nnc(-c2ccc(O)cc2)o1 | inactive |
| C=C(C)[C@@H]1CC[C@]2(C(=O)n3ccnc3)CC[C@]3(C)[C@H](CC[C@@H]4[C@@]5(C)CCCNC(C)(C)[C@@H]5CC[C@]43C)[C@@H]12 | inactive |
| COC(=O)/C=C1\SC(=Nc2ccc(F)cc2)N(CCc2c[nH]c3ccccc23)C1=O | inactive |
| COc1cc(-c2csc(NC(=O)Nc3cc(Cl)cc(Cl)c3)n2)cc(OC)c1OC | inactive |
| NS(=O)(=O)c1ccc(-n2ncc(NC(=O)Nc3ccc(S(=O)(=O)Nc4nccs4)cc3)c2-c2ccccc2)cc1 | inactive |
| O=c1[nH]nc(-c2ccccc2)c2sc(NC(=S)Nc3ccc(Cl)cc3)nc12 | inactive |
| O=C1CCC23OC(c4ccccc4N12)C(O)C(O)C3O (centres undefined) | inactive |
| CCOC(=O)c1c(C(F)(F)F)n([O-])c2ccc(Cl)cc2[n+]1=O | active |
| Oc1c(CCl)cc(Cl)cc1Cc1cc(Cl)cc(Cc2cc(Cl)cc(CCl)c2O)c1O | inactive |
